# measurement-protocol: Total and unbound fXa inhibitor plasma concentration in rats
# Format: in vivo, rat
# measurement-parameters: male, SD, rat, plasma, intravenous
The entries below are paired with their reported fraction unbound.
Response field accepts a number only; no unit should be typed.

1) COc1ccc(-n2nc(C(N)=O)c3c2C(=O)N(c2ccc(N4CCCCC4=O)cc2)CC3)cc1 [apixaban]: 0.0005

Below: the item to evaluate.
Reported fraction unbound, compound COc1ccc(NC(=O)c2ccc(C(=N)N(C)C)cc2)c(C(=O)Nc2ccc(Cl)cn2)c1 [betrixaban] : ____ 0.003

----------
Listed here: items and their measured concentration at 30 min.
# measurement-protocol: Total and unbound fXa inhibitor plasma concentration in rats
# Assay type: in vivo, rat
# measurement-parameters: male, SD, rat, plasma, iv
# number only, unit nM dropped from output

Check out these entries, answers already filled in.
1. COc1ccc(NC(=O)c2ccc(C(=N)N(C)C)cc2)c(C(=O)Nc2ccc(Cl)cn2)c1 [betrixaban]: 200
2. COc1ccc(-n2nc(C(N)=O)c3c2C(=O)N(c2ccc(N4CCCCC4=O)cc2)CC3)cc1 [apixaban]: 1400

Now take the following compound into account.
Query (compound): O=C(NC[C@H]1CN(c2ccc(N3CCOCC3=O)cc2)C(=O)O1)c1ccc(Cl)s1 [rivaroxaban] ; field requested: concentration at 30 min 1400
